The measurements presented in this section are drawn from patent US20250304707A1.

Target: biotinylated human BCMA (human) (UniProt Q02223)
Sequence (Q02223 1-54 limits assumed): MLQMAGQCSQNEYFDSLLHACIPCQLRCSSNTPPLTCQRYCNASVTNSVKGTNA
Assay: BLI (Octet RED384), biotinylated human BCMA on SAX sensors, scFv 1200 nM analyte, 1:1 model
// assign met if Kd falls strictly below 8 nM, else not met (ties count as not met)

BINDER | ASSIGNED LABEL
01-025 (scFv) (scFv, part only; not given: linker, domain order, Myc-His tags, V domains shown, not shown: another chain or arm of the molecule; small tags and cut ends) VH: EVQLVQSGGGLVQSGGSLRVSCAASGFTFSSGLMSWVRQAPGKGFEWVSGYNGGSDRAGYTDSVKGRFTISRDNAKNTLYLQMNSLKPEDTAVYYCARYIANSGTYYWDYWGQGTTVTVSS VL: QPVLTQPPSVSEAPRQRVTISCSGSSSNIGNNAVNWYQQLPGKAPKLLIYSTNQRPSGVPDRFSGSKSGTSASLAISGLQSEDEADYYCAAWDDRVSAWLFGGGTKLTVL | not met
01-030 (scFv) (scFv, part only; not given: linker, domain order, Myc-His tags, V domains shown, not shown: another chain or arm of the molecule; small tags and cut ends) VH: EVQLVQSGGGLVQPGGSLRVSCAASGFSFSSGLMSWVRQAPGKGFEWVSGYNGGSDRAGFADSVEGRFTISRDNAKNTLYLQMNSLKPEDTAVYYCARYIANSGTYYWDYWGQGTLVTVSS VL: QSALTQPPSASGTPGQRVTISCSGSISNIGSNTVNWYQHLPGTAPKLLIYNHNQRPSGVPDRFSGSTSGTSASLAISGLQSEDEADYFCATWDDSLSAWLFGGGTKLTVL | not met
01-027 (scFv) (scFv, part only; not given: linker, domain order, Myc-His tags, V domains shown, not shown: another chain or arm of the molecule; small tags and cut ends) VH: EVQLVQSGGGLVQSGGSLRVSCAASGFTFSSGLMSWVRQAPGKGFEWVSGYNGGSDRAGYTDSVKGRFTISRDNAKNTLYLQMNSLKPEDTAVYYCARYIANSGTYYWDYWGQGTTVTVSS VL: QAVLTQPPSASGTPGQRVSISCSGGISNIGSNIVNWYQHLPGTAPKLLIYSGNQRPSGVPDRFSGSKSGTSASLAISGLQSEDEADYYCSSWDSDLRNWVFGGGTKLTVL | met

Is 8 nM strictly greater than the binder's reported Kd? binder: 01-024 (scFv) (scFv, part only; not given: linker, domain order, Myc-His tags, V domains shown, not shown: another chain or arm of the molecule; small tags and cut ends) VH: EVQLVQSGGGLVQSGGSLRVSCAASGFTFSSGLMSWVRQAPGKGFEWVSCYNGGSDRAGYTDSVKGRFTISRDNAKNTLYLQMNSLKPEDTAVYYCARYIANSGTYYWDYWGQGTTVTVSS VL: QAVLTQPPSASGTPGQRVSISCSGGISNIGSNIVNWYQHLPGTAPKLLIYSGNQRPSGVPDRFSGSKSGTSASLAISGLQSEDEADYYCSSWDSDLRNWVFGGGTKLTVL
met

Is 8 nM strictly greater than the binder's reported Kd? binder: 01-026 (scFv) (scFv, part only; not given: linker, domain order, Myc-His tags, V domains shown, not shown: another chain or arm of the molecule; small tags and cut ends) VH: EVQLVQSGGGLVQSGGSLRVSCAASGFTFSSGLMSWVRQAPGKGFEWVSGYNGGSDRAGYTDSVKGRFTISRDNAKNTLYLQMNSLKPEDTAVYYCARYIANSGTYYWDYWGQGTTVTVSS VL: QSVLTQPPSVSGAPGQRVTISCTGSSSNIGAGYDVHWYQQLPGTAPKLVIYGNTNRPSGVPDRFSGSKSGTSASLAISGLQSEDEADYYCAAWDDSLNGWVFGGGTKLTVL
not met
